Where these numbers come from: patent US7232846B2

Test system: genetically-alcoholic rats (UChB strain)
Assay: Anti-alcoholism activity in genetically-alcoholic rats (consumption of 10% v/v alcohol)
Assay type: in vivo, rat
Settings: dose 20 mg/kg intra-gastric, first 6 h after starting the treatment, vs reference period
OBSERVATION_TYPE: Reduction percentage in the consumption of alcohol (10% v/v), treat. (%)
Unit % implied. Number only.

Here are 3 molecules together with their reported answers.
>>> recorded_result("NCCCNCCCCNCCCN [spermine]")
42
>>> recorded_result("NCCCCNCCCN [spermidine]")
29
>>> recorded_result("NCCCCN [putrescine]")
28

Next up:
Could you tell me which Reduction percentage in the consumption of alcohol (10% v/v), treat. is on file for NCCCN [1,3-propanediamine] ? 27
